The reported measurements were obtained from patent US20070066551.

System: IgE (Homo sapiens), P01854-1
Sequence (P01854 other isoform, or with tags, fused parts or gaps): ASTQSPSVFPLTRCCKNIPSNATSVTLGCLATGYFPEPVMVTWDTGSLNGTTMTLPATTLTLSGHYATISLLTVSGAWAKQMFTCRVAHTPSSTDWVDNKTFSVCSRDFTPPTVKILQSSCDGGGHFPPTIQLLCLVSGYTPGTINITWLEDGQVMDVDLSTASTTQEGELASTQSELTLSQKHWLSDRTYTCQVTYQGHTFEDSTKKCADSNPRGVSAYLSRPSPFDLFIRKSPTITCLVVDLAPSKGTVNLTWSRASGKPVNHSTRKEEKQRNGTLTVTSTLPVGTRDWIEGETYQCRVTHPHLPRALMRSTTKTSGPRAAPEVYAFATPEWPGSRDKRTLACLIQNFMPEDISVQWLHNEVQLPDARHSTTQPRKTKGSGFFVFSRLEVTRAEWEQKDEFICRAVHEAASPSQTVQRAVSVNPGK
protocol notes: filter
conditions: as ARC1335 with 2'-deoxy-2-aminopurine at 8 and 2'-OMe-2-aminopurine at 14; 3'-idT; DPBS with Ca/Mg, BSA, RT; parent 2.8 nM
pKd: −log10 of the molar value.
endpoint: pKd

{"columns": ["biosequence", "target entity", "endpoint", "reading"],
 "data": [
  ["AGCCUGGRGACCCRUGGGGGGCU [ARC2360]", "IgE (Homo sapiens), P01854-1", "pKd", 8.57]
]}

* * *

Tested on: IgE (Homo sapiens), P01854-1
protocol notes: filter
conditions: dRmY; 2'-deoxy-5mC at 3; DPBS with Ca/Mg, BSA, ssDNA, tRNA; parent 20 nM; other run 16 nM (Table 13, parent 8.5 nM)

{"columns": ["biosequence", "unit tag", "Kd"],
 "data": [
  ["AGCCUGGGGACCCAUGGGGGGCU [ARC597]", "nM", 21.5]
]}

* * *

System: IgE (Homo sapiens), P01854-1
protocol notes: filter
conditions: dRmY; 2'-deoxy-5mC at 22; DPBS with Ca/Mg, BSA, ssDNA, tRNA; parent 20 nM; other run 9 nM (Table 13, parent 8.5 nM)
pKd: −log10 of the molar value.

{"columns": ["biosequence", "target entity", "pKd"],
 "data": [
  ["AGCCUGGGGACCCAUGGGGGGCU [ARC602]", "IgE (Homo sapiens), P01854-1", 7.59]
]}

* * *

System: IgE (Homo sapiens), P01854-1
protocol notes: filter
conditions: as ARC1335 with 2'-deoxy-2-aminopurine at 8; 3'-idT; DPBS with Ca/Mg, BSA, RT; parent 2.8 nM

{"columns": ["biosequence", "Kd, nM"],
 "data": [
  ["AGCCUGGRGACCCAUGGGGGGCU [ARC2044]", 3.9]
]}

* * *

target entity: IL-23 (full length) (Homo sapiens) (UniProt Q9NPF7+P29460)
Sequence (Q9NPF7 20-189, chain 1 of 2): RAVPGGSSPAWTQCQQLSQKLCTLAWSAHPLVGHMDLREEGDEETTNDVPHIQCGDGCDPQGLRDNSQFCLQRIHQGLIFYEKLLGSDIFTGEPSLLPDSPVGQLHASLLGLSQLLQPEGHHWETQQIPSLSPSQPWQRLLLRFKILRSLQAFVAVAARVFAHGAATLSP
Sequence (P29460 23-328, chain 2 of 2): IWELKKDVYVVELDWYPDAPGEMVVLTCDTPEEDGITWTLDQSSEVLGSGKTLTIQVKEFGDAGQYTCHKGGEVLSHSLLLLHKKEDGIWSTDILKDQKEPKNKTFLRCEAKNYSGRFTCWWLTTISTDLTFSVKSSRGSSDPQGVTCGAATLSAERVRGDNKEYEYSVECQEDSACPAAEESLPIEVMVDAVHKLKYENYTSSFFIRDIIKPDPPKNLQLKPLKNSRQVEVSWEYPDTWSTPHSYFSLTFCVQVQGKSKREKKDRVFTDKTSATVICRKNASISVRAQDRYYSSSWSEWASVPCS
protocol notes: filter
conditions: dRmY; dI at 6th dA (position 12) [12]; DPBS with Ca/Mg, BSA, RT; parent 13 nM
endpoint: Kd (µM)

{"columns": ["biosequence", "target entity", "endpoint", "reading"],
 "data": [
  ["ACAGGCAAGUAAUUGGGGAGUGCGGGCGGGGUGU [ARC1653]", "IL-23 (full length) (Homo sapiens) (UniProt Q9NPF7+P29460)", "Kd", 0.025]
]}

* * *

Tested on: IgE (Homo sapiens), P01854-1
protocol notes: filter
conditions: dRmY; 2'-deoxy-5mC at 3; dC at 12; DPBS with Ca/Mg, BSA, ssDNA, tRNA; parent 27 nM

{"columns": ["biosequence", "Kd (nM)"],
 "data": [
  ["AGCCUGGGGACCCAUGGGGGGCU [ARC916]", 13.7]
]}

* * *

System: IgE (Homo sapiens), P01854-1
protocol notes: filter
conditions: as ARC1335 with dI at 14 and 20; 3'-idT; DPBS with Ca/Mg, BSA, RT; parent ARC1335 15 nM

{"columns": ["biosequence", "Kd [nM]"],
 "data": [
  ["AGCCUGGGGACCCNUGGGGNGCU [ARC1647]", 1]
]}

* * *

Test system: IgE (Homo sapiens), P01854-1
protocol notes: filter
conditions: 2'-deoxy purines, 2'-OMe pyrimidines (dRmY); DPBS with Ca/Mg, BSA, RT; other runs 12.6 nM (Table 10); with ssDNA and tRNA 14.6 (Table 8), 20 (Table 12), 8.5, 27 and 13 (Table 13)
endpoint: Kd (nM)

{"columns": ["biosequence", "target entity", "reading"],
 "data": [
  ["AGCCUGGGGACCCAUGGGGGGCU [ARC445]", "IgE (Homo sapiens), P01854-1", 3]
]}
